Please provide measured Mean RBF for the entries that follow.
- Test system: Canis familiaris
- EXPERIMENT NOTES: Effect on renal blood flow in conscious dogs dosed at 5 mg/kg, observed at 4-5 h
- Format: functional, Canis lupus familiaris
One number for each entry, in mL/min.

Examples from the recorded data:
>>> measured("O=C(O)c1ccc(CCCC2SCC(=O)N2CCC2(O)CCCCC2)cc1 (centres undefined)")
242
>>> measured("O=C(O)CCCCCCC1SCC(=O)N1CCC1(O)CCCCC1 (centres undefined)")
160
>>> measured("CCCCCC(O)CCN1C(=O)CSC1CCCCCCC(=O)O (centres undefined)")
111

Turning to the following compound.
Asked: Form: Entry = CCCCCC(O)CCN1C(=O)CSC1CCCc1ccc(C(=O)O)cc1 (centres undefined) | System = Canis familiaris | Mean RBF = ____
Given back: 159
